Molecular target: Bcl-2 protein (Recombinant Human Bcl-2 Protein) (Homo sapiens, UniProt P10415)
Construct: purchased Novus NBP2-34889
Sequence (P10415 whole entry): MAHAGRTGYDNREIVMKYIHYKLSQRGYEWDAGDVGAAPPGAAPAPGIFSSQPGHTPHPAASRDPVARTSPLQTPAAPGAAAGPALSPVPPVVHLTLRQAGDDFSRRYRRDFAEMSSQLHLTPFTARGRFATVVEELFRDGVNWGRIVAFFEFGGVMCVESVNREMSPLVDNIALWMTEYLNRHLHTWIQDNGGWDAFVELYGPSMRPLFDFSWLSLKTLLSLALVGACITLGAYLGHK
Experiment: Binding evaluation of mixture library compounds to Bcl-2 using AS-MS (affinity selection mass spectrometry)
Details: AS-MS, mixture of 1200 compounds, Bcl-2; ASMS Ratio(%)=(A−C)/B×100; replicate n = 2
OBSERVATION_TYPE: ASMS ratio (%) n = 2

Guide cases for ASMS ratio (%) n = 2, answers given:
>  <COMPOUND>
CCOc1cncc(-c2ccc(C(=O)N3CCN(c4ccc(C(=O)NCC(F)(F)F)cc4)CC3)cc2C)c1 [B1K026-01]

>  <TESTED_ON>
Bcl-2 protein (Recombinant Human Bcl-2 Protein) (Homo sapiens, UniProt P10415)

>  <OBSERVATION_TYPE>
ASMS ratio (%) n = 2

>  <MEASURED>
0.2

$$$$
>  <COMPOUND>
CCOc1cccc(-c2ccc(C(=O)N3CCN(c4ccc(C(=O)NCC56CC7CC(CC(C7)C5)C6)nn4)CC3)cc2F)c1 [B1A005-01]

>  <TESTED_ON>
Bcl-2 protein (Recombinant Human Bcl-2 Protein) (Homo sapiens, UniProt P10415)

>  <OBSERVATION_TYPE>
ASMS ratio (%) n = 2

>  <MEASURED>
−10.7

$$$$

[A] CCOc1cncc(-c2ccc(CN3CCN(c4ccc(C(=O)NCC56CC7CC(CC(C7)C5)C6)cc4)CC3)c(OC)c2)c1 [B1A054-01]
[B] CCOc1cncc(-c2ccc(CN3CCN(c4ccc(C(=O)NCC(F)(F)F)cc4)CC3)cc2F)c1 [B1K052-01]
[C] CCOc1cccc(-c2ccccc2CCC(=O)N2CCN(c3ccc(C(=O)NCC45CC6CC(CC(C6)C4)C5)cc3)CC2)c1 [B1A033-01]
[D] CCOc1cccc(-c2ccc(CN3CCN(c4ccc(C(=O)NCC56CC7CC(CC(C7)C5)C6)cc4)CC3)c(OC)c2)c1 [B1A053-01]
[E] CCOc1cccc(-c2ccc(CN3CCN(c4ccc(C(=O)NCC(F)(F)F)cc4)CC3)c3ccccc23)c1 [B1K065-01]
Exercise: Form: Sort by [ASMS ratio (%) n = 2] Order [ ascending ] Your reply should list the labels following the order given in the request.
Solution: C, E, A, B, D
(C: −13.3%, E: −5.6%, A: 0.0%, B: 0.5%, D: 4.8%)
